- Assay System: T1, FZD6 CRD (Homo sapiens, UniProt O60353)
- T1 construct: S20-P146; GPI anchor signal (C); expressed in transfected cells; host or cells: CHO cells, lentiviral pLenti-puro
- T1 sequence (O60353 20-146): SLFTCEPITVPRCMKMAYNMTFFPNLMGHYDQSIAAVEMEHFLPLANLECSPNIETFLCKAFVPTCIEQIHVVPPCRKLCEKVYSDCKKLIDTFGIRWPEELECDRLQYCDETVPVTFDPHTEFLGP
- Experimental Details: Immunofluorescence of anti-FZD5 Fab binding to CHO cells overexpressing Frizzled CRD
- Parameters: key: −: no binding; +: very weak binder; ++: weak binder; +++: good binder; ++++: very good binder
Observation Type: Immunofluorescence binding, Frizzled CRD overexpressed on CHO cells: FZD6

Fab-2926: anti-FZD5 Fab with antibody variable region Fv-2926; CDR SEQ ID NOs: 35, 36, 65, 103, 141, 173 (antibody, V domains shown) VH: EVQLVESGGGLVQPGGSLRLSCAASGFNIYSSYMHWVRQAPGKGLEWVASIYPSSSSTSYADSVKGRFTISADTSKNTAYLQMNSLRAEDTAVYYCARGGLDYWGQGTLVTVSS VL: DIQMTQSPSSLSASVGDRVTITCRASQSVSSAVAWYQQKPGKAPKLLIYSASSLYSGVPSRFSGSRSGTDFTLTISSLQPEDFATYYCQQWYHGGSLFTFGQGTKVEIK
−
Fab-2910: anti-FZD5 Fab with antibody variable region Fv-2910; CDR SEQ ID NOs: 35, 36, 49, 88, 125, 162 (antibody, V domains shown) VH: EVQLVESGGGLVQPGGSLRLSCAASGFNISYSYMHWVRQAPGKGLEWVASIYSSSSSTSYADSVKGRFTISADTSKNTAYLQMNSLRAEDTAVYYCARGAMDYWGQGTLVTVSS VL: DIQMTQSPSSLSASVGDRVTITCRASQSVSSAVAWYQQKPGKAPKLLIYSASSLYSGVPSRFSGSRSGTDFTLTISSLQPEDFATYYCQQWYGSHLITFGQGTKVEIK
−

The reported measurements were obtained from patent US20210253718A1.
